# assayed target: OGA (Homo sapiens)
# Construct: HEK293 cells inducible for P301L mutant human Tau (isoform 2N4R) were established at Janssen; endogenous in cells; host or cells: HEK293 cells inducible for P301L mutant human Tau (2N4R)
# protocol text: OGA cellular assay (ICC detection of O-GlcNAcylated proteins in HEK293 cells inducible for P301L mutant human Tau)
# Format: cell-based
# assay setup: HEK293, HEK293 cells inducible for P301L mutant human Tau, 6 hours incubation; maximum = Thiamet G 200 uM
reported metric: Emax

These recorded examples may help you get a feel for the data.
Cc1cc(OC2CCN(C(C)c3ccc4sc(C)nc4n3)CC2)cc(C)n1 (stereo not drawn)    71%
Cc1cnc(OC2CCN(C(C)c3nc4c(cc3F)OCCO4)CC2)c(C)n1 (stereo not drawn)    73%
Cc1cc(OC2CCN(C(C)c3ccc4c(n3)OCCO4)CC2)ccn1 (stereo not drawn)    59%
Cc1ccnc(OC2CCN(C(C)c3nc4c(cc3F)OCCO4)CC2)c1 (stereo not drawn)    83%
Cc1cc(OC2CCN(C(C)c3nc4c(cc3F)OCCO4)CC2)cc(C#N)n1 (stereo not drawn)    95%
Cc1cc(OC2CCN(C(C)c3ccc4c(n3)OCCO4)CC2)cc(OC(C)C)n1 (stereo not drawn)    64%
CC(c1ccc2c(n1)OCCO2)N1CCC(Oc2cnc(Cl)nc2)CC1 (stereo not drawn)    60%
COc1cc(OC2CCN(C(C)c3nc4c(cc3F)OCCO4)CC2)cc(C)n1 (stereo not drawn)    72%

Field: next molecule
Give the value of Emax reported for the following: COc1cc(C#N)cnc1OC1CCN(C(C)c2ccc3c(n2)OCCO3)CC1 (stereo not drawn) 10%
